TESTED SYSTEM: T1, murine IL-11 (mouse, UniProt P47873 22-199)
T1 sequence: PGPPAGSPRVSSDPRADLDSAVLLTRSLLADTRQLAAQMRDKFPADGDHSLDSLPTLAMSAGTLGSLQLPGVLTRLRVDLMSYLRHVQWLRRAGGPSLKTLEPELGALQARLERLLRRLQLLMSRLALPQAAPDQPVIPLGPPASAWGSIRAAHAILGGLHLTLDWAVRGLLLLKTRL
ASSAY NAME: cell-based or functional assay
MEASUREMENT TYPE: RGA Efficacy (%)
Please state the figure in %; there is no need to write the unit.

TPP-29394 (antibody, human IgG1, V domains shown) VH: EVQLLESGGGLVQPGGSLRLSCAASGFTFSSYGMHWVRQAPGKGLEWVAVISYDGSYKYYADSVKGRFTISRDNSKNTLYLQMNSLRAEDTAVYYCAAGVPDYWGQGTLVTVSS VL: QSVLTQPPSASGTPGQRVTISCSGSSSNIGSDYDVHWYQQLPGTAPKLLIYSNNERPSGVPDRFSGSKSGTSASLAISGLRSEDEADYYCAAWDFSLYGPVFGGGTKLTVL :: 93.9
TPP-29391 (antibody, human IgG1, V domains shown) VH: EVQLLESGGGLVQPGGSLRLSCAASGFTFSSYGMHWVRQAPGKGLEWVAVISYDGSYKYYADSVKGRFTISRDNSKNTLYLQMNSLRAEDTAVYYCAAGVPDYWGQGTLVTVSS VL: QSVLTQPPSASGTPGQRVTISCSGSSSNIGSDYDVHWYQQLPGTAPKLLIYSNNERPSGVPDRFSGSKSGTSASLAISGLRSEDEADYYCAAWDSSLYGPVFGGGTKLTVL :: 96.9

Note: attention shifts to another entry.
Enquiry: Item under review: TPP-29404 (antibody, human IgG1, V domains shown) VH: EVQLLESGGGLVQPGGSLRLSCAASGFTFSSYGGHWVRQAPGKGLEWVALISYDGSYKYYADSVKGRFTISRDNSKNTLYLQMNSLRAEDTAVYYCAAGVPDYWGQGTLVTVSS VL: QSVLTQPPSASGTPGQRVTISCSGSSSNIGSYYDVHWYQQLPGTAPKLLIYSNNERPSGVPDRFSGSKSGTSASLAISGLRSEDEADYYCAAWDSSLSGPVFGGGTKLTVL . Reported RGA Efficacy (%)?
Return: 91.8
